ASSAY TARGET: IDH1 R132H (Homo sapiens (Human), UniProt O75874, R132H)
Sequence (O75874 whole entry R132H): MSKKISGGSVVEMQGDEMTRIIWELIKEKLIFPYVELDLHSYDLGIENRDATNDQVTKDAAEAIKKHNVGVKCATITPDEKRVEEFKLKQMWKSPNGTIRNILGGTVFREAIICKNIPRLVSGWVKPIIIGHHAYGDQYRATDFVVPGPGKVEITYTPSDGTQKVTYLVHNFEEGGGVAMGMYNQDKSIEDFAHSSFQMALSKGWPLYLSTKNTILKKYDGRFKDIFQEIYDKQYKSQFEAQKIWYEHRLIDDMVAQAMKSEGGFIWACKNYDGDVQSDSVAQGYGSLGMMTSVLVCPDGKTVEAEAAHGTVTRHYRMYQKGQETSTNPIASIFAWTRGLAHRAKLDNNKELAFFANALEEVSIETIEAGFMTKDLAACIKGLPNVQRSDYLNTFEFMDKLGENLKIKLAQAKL
EXPERIMENT DESCRIPTION: Assays for IDH1 R132H Inhibitors (NADPH/aKG, resazurin detection)
Assay type: biochemical
COND: IDH1 R132H enzyme, Table 2; read-out: IDHR132H Activity
pIC50: −log10 of the molar value.

[
  {
    "COMPOUND": "CC(C)c1nc(N2CCN(C(=O)c3c[nH]c4ccccc34)CC2)c(C#N)c2c1COCC2 [Compound 104]",
    "ASSAY TARGET": "IDH1 R132H (Homo sapiens (Human), UniProt O75874, R132H)",
    "pIC50": "5.00 to 6.00"
  },
  {
    "COMPOUND": "Cc1ncoc1C(=O)N1CCN(c2nc(C(C)C)c3c(c2C#N)CC(C)(C)OC3)C[C@H]1C(C)C [Compound 213]",
    "ASSAY TARGET": "IDH1 R132H (Homo sapiens (Human), UniProt O75874, R132H)",
    "pIC50": "5.00 to 6.00"
  },
  {
    "COMPOUND": "C[C@@H]1CN(C(=O)c2ccco2)CCN1c1nc(C2CC2)c2c(c1C#N)CC(C)(C)OC2 [Compound 204]",
    "ASSAY TARGET": "IDH1 R132H (Homo sapiens (Human), UniProt O75874, R132H)",
    "pIC50": "5.00 to 6.00"
  },
  {
    "COMPOUND": "COCC(=O)N1CCN(c2nc(C3CC3)c3c(c2C#N)CC(C)(C)OC3)C[C@H]1C(C)C [Compound 347]",
    "ASSAY TARGET": "IDH1 R132H (Homo sapiens (Human), UniProt O75874, R132H)",
    "pIC50": "> 6.30"
  },
  {
    "COMPOUND": "CC(C)c1nc(N2CCN(C(=O)Cc3cccnc3)[C@H](C(C)C)C2)c(C#N)c2c1COC(C)(C)C2 [Compound 250]",
    "ASSAY TARGET": "IDH1 R132H (Homo sapiens (Human), UniProt O75874, R132H)",
    "pIC50": "6.00 to 6.30"
  },
  {
    "COMPOUND": "CCc1nc(N2CCN(C(=O)c3ccoc3)[C@H](C(C)C)C2)c(C#N)c2c1COC(C)(C)C2 [Compound 414]",
    "ASSAY TARGET": "IDH1 R132H (Homo sapiens (Human), UniProt O75874, R132H)",
    "pIC50": "5.00 to 6.00"
  },
  {
    "COMPOUND": "COCCNC(=O)N1CCN(c2nc(C3CC3)c3c(c2C#N)CC(C)(C)OC3)C[C@H]1C(C)C [Compound 353]",
    "ASSAY TARGET": "IDH1 R132H (Homo sapiens (Human), UniProt O75874, R132H)",
    "pIC50": "6.00 to 6.30"
  }
]
